Entries and their inhibition at 10 µM values follow.
tested_system: 5-HT1A (Homo sapiens, UniProt P08908)
Sequence (P08908 1-422): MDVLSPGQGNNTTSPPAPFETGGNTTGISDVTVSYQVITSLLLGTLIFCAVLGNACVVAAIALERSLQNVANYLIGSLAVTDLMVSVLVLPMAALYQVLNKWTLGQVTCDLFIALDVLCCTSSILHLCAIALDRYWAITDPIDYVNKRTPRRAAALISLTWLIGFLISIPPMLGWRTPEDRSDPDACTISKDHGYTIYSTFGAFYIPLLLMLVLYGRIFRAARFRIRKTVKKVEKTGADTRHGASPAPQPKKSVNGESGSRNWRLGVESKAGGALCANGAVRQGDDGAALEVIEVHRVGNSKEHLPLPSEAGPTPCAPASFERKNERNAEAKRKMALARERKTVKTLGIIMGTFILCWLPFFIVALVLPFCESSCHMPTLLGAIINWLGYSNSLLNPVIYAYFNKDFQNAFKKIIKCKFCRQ
protocol_details: 5-HT1 Functional Assay (cAMP) in CHO/5-HT1A cells
Format: cell-based
Set-up: expressed in transfected cells; host or cells: CHO/5-HT1A cells
Protocol: 5-HT1 Functional Assay (cAMP) CHO/5-HT1A cells were random seeded at a density of about 200,000/well in 24 well plates the day prior to the experiment. On the day of the experiment, cells were pretreated for 15 minutes at 37° C. with 500 μM isobutylmethylxantine (IBMX) dissolved in culture medium without serum. […] For the cAMP evaluation, samples were properly diluted and the cAMP content was measured by an enzyme immunoassay system.
property_name: inhibition at 10 µM

smiles_representation | assay_value
CCNC(=O)OCCn1c(=O)n(C/C=C\CN2CCN(c3cccc(C(F)(F)F)c3)CC2)c2ccccc21 | 84%
COCCn1c(=O)n(C/C=C/CN2CCN(c3cccc(C(F)(F)F)c3)CC2)c2ccccc21 | 83%
CS(=O)(=O)NCCn1c(=O)n(C/C=C\CN2CCN(c3cccc(Cl)c3)CC2)c2ccccc21 | 74%
COCCn1c(=O)n(C/C=C\CN2CC=C(c3ccccc3)CC2)c2ccccc21 | 47%
CCNC(=O)OCCn1c(=O)n(C/C=C/CN2CCN(c3cccc(C(F)(F)F)c3)CC2)c2ccccc21 | 87%
CS(=O)(=O)NCCn1c(=O)n(C/C=C/CN2CCN(c3cccc(Cl)c3)CC2)c2ccccc21 | 67%
CC(=O)NCCn1c(=O)n(C/C=C/CN2CCN(c3cccc(C(F)(F)F)c3)CC2)c2ccccc21 | 82%

* * *

tested_system: 5-HT1A (Homo sapiens)
Sequence (P08908 1-422): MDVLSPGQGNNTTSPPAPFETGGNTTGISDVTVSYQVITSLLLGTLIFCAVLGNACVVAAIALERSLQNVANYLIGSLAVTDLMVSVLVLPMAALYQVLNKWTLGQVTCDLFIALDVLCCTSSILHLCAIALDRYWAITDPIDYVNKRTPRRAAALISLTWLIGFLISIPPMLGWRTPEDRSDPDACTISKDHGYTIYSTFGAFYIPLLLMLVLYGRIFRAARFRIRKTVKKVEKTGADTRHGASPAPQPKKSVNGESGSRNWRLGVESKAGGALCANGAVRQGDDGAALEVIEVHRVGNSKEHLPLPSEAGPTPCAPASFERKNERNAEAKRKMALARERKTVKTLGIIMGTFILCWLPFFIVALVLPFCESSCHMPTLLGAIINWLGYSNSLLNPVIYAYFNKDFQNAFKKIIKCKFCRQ
protocol_details: 5HT1A Radioligand Receptor Binding Assay ([3H]-8-OH-DPAT, CHO cell membranes)
Set-up: expressed in transfected cells; host or cells: CHO cells
particulars: compound 10^−7 M, singlicate; [3H]-8-OH-DPAT 0.6-0.7 nM; CHO membranes, human 5-HT1A
Protocol: 5HT1A Radioligand Receptor Binding Assay Membranes from CHO cells, expressing 5-HT1A human receptors were suspended in incubation buffer. Binding assays were performed in MultiProbe 204 pipetting system (Packard), according to a predetermined mapping, consistent with the software Screen. The compounds were tested in singlicate at one concentration (10^−7 M) in a total volume of 1000 μl. […] Non-specific binding was determined in the presence of 5-HT (10^−5 M). […]

compound | inhibition at 0.1 µM
CCNC(=O)OCCn1c(=O)n(CCN2CCN(c3cccc(C)c3C)CC2)c2ccccc21 [Compound 215] | 98%
CCNC(=O)OCCn1c(=O)n(C/C=C\CN2CC=C(c3ccccc3)CC2)c2ccccc21 [Compound 404] | 95%
O=c1n(CCN2CCOCC2)c2ccccc2n1CCN1CCN(c2cccc(C(F)(F)F)c2)CC1 [Compound 228] | 95%
O=c1n(C/C=C\CN2CCN(c3cccc(Cl)c3)CC2)c2ccccc2n1CCN1CCOCC1 [Compound 263] | 92%
O=c1n(C/C=C/CN2CCN(c3cccc(Cl)c3)CC2)c2ccccc2n1CCO [Compound 382] | 88%
COCCn1c(=O)n(C/C=C\CN2CC=C(c3ccccc3)CC2)c2ccccc21 [Compound 285] | 96%
COCCn1c(=O)n(C/C=C/CN2CCN(c3cccc(Cl)c3)CC2)c2ccccc21 [Compound 297] | 96%

These measurements were taken from patent US6521623B1.
